target: JAK1 (Homo sapiens, UniProt P23458); construct: made in house; host or cells: SF9 insect cells (baculovirus); test: JAK1 inhibition (Table 4); assay type: biochemical; conditions: read-out: JAK1 Ki
Sequence (P23458 852-1154): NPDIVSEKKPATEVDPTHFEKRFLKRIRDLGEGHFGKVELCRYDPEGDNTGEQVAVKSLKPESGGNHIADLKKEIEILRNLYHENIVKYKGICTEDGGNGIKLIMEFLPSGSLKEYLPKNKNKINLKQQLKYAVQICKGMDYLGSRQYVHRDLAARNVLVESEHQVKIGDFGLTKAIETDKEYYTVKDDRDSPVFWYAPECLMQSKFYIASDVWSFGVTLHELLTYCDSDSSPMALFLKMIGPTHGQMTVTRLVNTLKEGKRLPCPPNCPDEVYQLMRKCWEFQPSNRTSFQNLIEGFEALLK
measurement.type: Ki (nM)
Provide the reading as a plain figure in nM.

Can you share its Ki? I mean this compound: CC(C)(C)C(=O)NCCc1nc2cnc3[nH]ccc3c2n1C1CCN(CCC#N)CC1 [Example 374] 4.69

Can you share its Ki? I mean this compound: CCCS(=O)(=O)N1CCC(n2c(Cc3conc3C)nc3cnc4[nH]ccc4c32)CC1 [Example 381] 87.1

Can you share its Ki? I mean this compound: COCCN(C)C(=O)NC1CCC(n2cnc3cnc4[nH]ccc4c32)CC1 (centres unmarked) [Example 763] 12.5

Can you share its Ki? I mean this compound: Cn1ccnc1CN1CCC[C@@H](n2cnc3cnc4[nH]ccc4c32)C1 [Example 44] 105

Can you share its Ki? I mean this compound: COCCC(=O)N1CCC[C@@H](n2c([C@@H](C)O)nc3cnc4[nH]ccc4c32)C1 [Example 784] 224

Can you share its Ki? I mean this compound: COCC(=O)NC1CCCC(n2cnc3cnc4[nH]ccc4c32)C1 (single isomer, unassigned) [Example 482] 55.8

Can you share its Ki? I mean this compound: CCN1CCC(n2c([C@@H](C)O)nc3cnc4[nH]ccc4c32)C(F)(F)C1 (single isomer, unassigned) [Example 879] 3.88

Can you share its Ki? I mean this compound: FC1(F)CN(Cc2ccccc2)CCC1n1cnc2cnc3[nH]ccc3c21 (centres unmarked) [Example 179] 0.58

---

Kindly state pKi for each of the entries shown.
molecular target: JAK2 (Homo sapiens); construct: made in house; host or cells: SF9 insect cells (baculovirus); test: JAK2 inhibition (Table 4); type: biochemical; settings: read-out: JAK2 Ki
Sequence (O60674 812-1132): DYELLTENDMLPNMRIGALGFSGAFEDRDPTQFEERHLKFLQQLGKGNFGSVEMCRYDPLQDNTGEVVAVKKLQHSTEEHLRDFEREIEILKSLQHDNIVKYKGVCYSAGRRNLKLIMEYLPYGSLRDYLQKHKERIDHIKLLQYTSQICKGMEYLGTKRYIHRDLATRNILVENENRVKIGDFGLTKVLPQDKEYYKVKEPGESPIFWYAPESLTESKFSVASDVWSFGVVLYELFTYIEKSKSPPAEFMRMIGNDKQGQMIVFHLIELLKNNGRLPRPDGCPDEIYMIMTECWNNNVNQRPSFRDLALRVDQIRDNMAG
Scale: negative log10 of molar concentration, which is what pKi denotes.

Can you share its pKi? I mean this molecule: Cc1nc2cnc3[nH]ccc3c2n1[C@H]1CC[C@@H](NCCC#N)C1 7.53

Can you share its pKi? I mean this molecule: N#CCCN1CCC(n2c(COCC3CC3)nc3cnc4[nH]ccc4c32)CC1 6.98

Can you share its pKi? I mean this molecule: Cc1nc2cnc3[nH]ccc3c2n1C(C)C1CCCO1 (single isomer, unassigned) [Example 427] 6.78

Can you share its pKi? I mean this molecule: N#CCCN1CCC(n2c(CC3CCCO3)nc3cnc4[nH]ccc4c32)CC1 (stereo not shown) 7.37

---

molecular target: JAK2 (Homo sapiens); construct: made in house; host or cells: SF9 insect cells (baculovirus); assay: JAK2 inhibition (Table 4); format: biochemical; conditions: read-out: JAK2 Ki
Kindly state pKi for each of the entries shown.
Scale: negative log10 of molar concentration, which is what pKi denotes.

Can you share its pKi? I mean this compound: CC(C1CCCO1)n1cnc2cnc3[nH]ccc3c21 (single isomer, unassigned) [Example 418] 7.52

Can you share its pKi? I mean this compound: CO[C@H]1CC[C@H](n2c(CO)nc3cnc4[nH]ccc4c32)CC1 [Example 634] 7.66

Can you share its pKi? I mean this compound: C[C@@H](O)c1nc2cnc3[nH]ccc3c2n1C1CCN(Cc2cncn2C)CC1 [Example 823] 6.77

Can you share its pKi? I mean this compound: CN(C)C(=O)CN1CCC[C@@H](n2cnc3cnc4[nH]ccc4c32)C1 [Example 60] 6.70

Can you share its pKi? I mean this compound: CC1(n2cnc3cnc4[nH]ccc4c32)CCCN(C(=O)CC#N)C1 (racemic) [Example 706] 7.17

Can you share its pKi? I mean this compound: CS(=O)(=O)N1[C@@H]2CC[C@H]1C[C@H](n1cnc3cnc4[nH]ccc4c31)C2 [Example 97] 8.63

Can you share its pKi? I mean this compound: N#CCCN1CCC(n2c(COCC3CCCC3)nc3cnc4[nH]ccc4c32)CC1 [Example 838] 7.07

Can you share its pKi? I mean this compound: C[C@@H](O)c1nc2cnc3[nH]ccc3c2n1C1CCCC(C#N)C1 (mixture of isomers) [Example 648] 7.14

---

target: JAK3 (Homo sapiens, UniProt P52333); construct: made in house; host or cells: SF9 insect cells (baculovirus); assay: JAK3 inhibition (Table 4); type: biochemical; details: read-out: JAK3 Ki
Sequence (P52333 783-1124): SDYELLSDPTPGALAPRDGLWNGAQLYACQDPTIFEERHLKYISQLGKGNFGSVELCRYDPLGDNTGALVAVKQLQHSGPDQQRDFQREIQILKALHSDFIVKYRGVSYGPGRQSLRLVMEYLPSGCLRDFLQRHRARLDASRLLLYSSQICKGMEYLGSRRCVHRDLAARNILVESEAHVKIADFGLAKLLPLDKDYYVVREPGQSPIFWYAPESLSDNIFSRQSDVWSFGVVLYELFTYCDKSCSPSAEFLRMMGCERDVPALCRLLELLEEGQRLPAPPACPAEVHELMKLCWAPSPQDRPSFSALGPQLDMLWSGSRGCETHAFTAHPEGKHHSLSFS
Kindly state pKi for each of the entries shown.
Scale: negative log10 of molar concentration, which is what pKi denotes.

Requested read-out pKi, target or system JAK3 (Homo sapiens, UniProt P52333), entry Cc1cc(CN2CCC(n3c([C@@H](C)O)nc4cnc5[nH]ccc5c43)CC2)n(C)n1 7.26

Requested read-out pKi, target or system JAK3 (Homo sapiens, UniProt P52333), entry c1cncc(CN2CCC(n3cnc4cnc5[nH]ccc5c43)CC2)c1 7.75

Requested read-out pKi, target or system JAK3 (Homo sapiens, UniProt P52333), entry CC(=O)N1CCC(N[C@H]2CC[C@H](n3cnc4cnc5[nH]ccc5c43)CC2)CC1 6.31

Requested read-out pKi, target or system JAK3 (Homo sapiens, UniProt P52333), entry c1cc2c(ncc3ncn(C4CCc5[nH]ncc5C4)c32)[nH]1 (stereo not drawn) 7.59

Requested read-out pKi, target or system JAK3 (Homo sapiens, UniProt P52333), entry C[C@]1(O)CC[C@H](n2nnc3cnc4[nH]ccc4c32)CC1 6.69

Requested read-out pKi, target or system JAK3 (Homo sapiens, UniProt P52333), entry O=C(CN1CCCCC1=O)N1CCC(n2cnc3cnc4[nH]ccc4c32)CC1 5.82

Requested read-out pKi, target or system JAK3 (Homo sapiens, UniProt P52333), entry CC(C)COCc1nc2cnc3[nH]ccc3c2n1C1CCN(CCC#N)CC1 6.77

Requested read-out pKi, target or system JAK3 (Homo sapiens, UniProt P52333), entry CC1CC(n2cnc3cnc4[nH]ccc4c32)CCN1Cc1ccccc1 (racemic) [Example 128] 7.22

Requested read-out pKi, target or system JAK3 (Homo sapiens, UniProt P52333), entry Cc1nc(CN2CCC(n3c([C@@H](C)O)nc4cnc5[nH]ccc5c43)CC2)c(C)o1 7.05

---

Kindly state pKi for each of the entries shown.
biological target: JAK1 (Homo sapiens, UniProt P23458); construct: made in house; host or cells: SF9 insect cells (baculovirus); assay: JAK1 inhibition (Table 4); assay type: biochemical; conditions: read-out: JAK1 Ki
Scale: negative log10 of molar concentration, which is what pKi denotes.

Requested read-out pKi, target or system JAK1 (Homo sapiens, UniProt P23458), entry N#CCCN1CCC(n2c(CCC3CC3)nc3cnc4[nH]ccc4c32)CC1 7.80

Requested read-out pKi, target or system JAK1 (Homo sapiens, UniProt P23458), entry CN1CCN(CC(=O)N2CCC(n3cnc4cnc5[nH]ccc5c43)CC2)CC1 6.96

Requested read-out pKi, target or system JAK1 (Homo sapiens, UniProt P23458), entry O=C(Cc1nc2cnc3[nH]ccc3c2n1C1CCCOC1)NCCn1ccnc1 (racemic) 7.36

Requested read-out pKi, target or system JAK1 (Homo sapiens, UniProt P23458), entry c1cc(N2CCC[C@@H](n3cnc4cnc5[nH]ccc5c43)C2)ccn1 6.75

Requested read-out pKi, target or system JAK1 (Homo sapiens, UniProt P23458), entry c1cncc(CN2CCC(n3cnc4cnc5[nH]ccc5c43)CC2)c1 8.61

---

Molecular target: TYK2 (Homo sapiens)
Sequence (P29597 873-1187): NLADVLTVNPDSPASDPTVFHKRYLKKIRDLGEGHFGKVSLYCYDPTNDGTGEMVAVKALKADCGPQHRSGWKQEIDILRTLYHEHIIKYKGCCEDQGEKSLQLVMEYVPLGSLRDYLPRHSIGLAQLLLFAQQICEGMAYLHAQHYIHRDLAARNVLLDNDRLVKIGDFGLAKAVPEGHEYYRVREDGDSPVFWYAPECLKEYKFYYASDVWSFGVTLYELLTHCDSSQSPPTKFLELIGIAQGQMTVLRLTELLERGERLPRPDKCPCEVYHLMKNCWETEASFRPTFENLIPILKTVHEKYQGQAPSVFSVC
Structures can show the parent of a compound that is named as a salt.
Kindly state Ki for each of the entries shown.
Provide the reading as a plain figure in nM.

Can you share its Ki? I mean this compound: Cc1nc2cnc3[nH]ccc3c2n1C1CCC(N2CCC(F)(F)CC2)CC1 (centres unmarked) 36.9

Can you share its Ki? I mean this compound: N#CCCN1CCC(n2c(CC3CCOCC3)nc3cnc4[nH]ccc4c32)CC1 316

Can you share its Ki? I mean this compound: C[C@@H](O)c1nc2cnc3[nH]ccc3c2n1C1CCC(CCS(C)(=O)=O)CC1 (some centres unmarked) 6.89

Can you share its Ki? I mean this compound: CCC(C)S(=O)(=O)NCCc1nc2cnc3[nH]ccc3c2n1C1CCN(CCC#N)CC1 (racemic) 71.8

Can you share its Ki? I mean this compound: Cc1nc2cnc3[nH]ccc3c2n1C1CCN(Cc2ccccc2)CC1C (racemic) [Example 151, dihydrochloride salt] 31.2

Can you share its Ki? I mean this compound: CS(=O)(=O)N1CC[C@@H](n2cnc3cnc4[nH]ccc4c32)C1 114

Can you share its Ki? I mean this compound: N#CCCN1[C@@H]2CC[C@H]1C[C@H](n1cnc3cnc4[nH]ccc4c31)C2 8.64

Can you share its Ki? I mean this compound: CCC(=O)N1CCC[C@@H](n2c([C@@H](C)O)nc3cnc4[nH]ccc4c32)C1 698

Data origin: patent US8461328B2
